Below, each entry is listed alongside its reported TGI.
# Tested on: KM12 colon
# EXPERIMENTAL DETAILS: NCI tumour cell line growth inhibition, 48 h

{"MOLECULE": "c1ccc(P(CCP(c2ccccn2)c2ccccn2)c2ccccc2)cc1", "TGI": "> 100 µM"}
{"MOLECULE": "CC(C)(C)NC(=O)NC12CC3CC(CC(F)(C3)C1)C2", "TGI": "> 100 µM"}
{"MOLECULE": "CCCCCCCCCc1cc[n+](CC(=O)c2ccc([N+](=O)[O-])cc2)cc1", "TGI": "1.97 µM"}
{"MOLECULE": "NC(=O)NC(=O)c1cccc(CNc2ccc(C(=O)N[C@@H](CCC(=O)O)C(=O)O)cc2)n1", "TGI": "> 100 µM"}

// moving on: another record for TGI
Exercise: Using the record for COc1cc(C2SC(N)=Nc3c2c(C)nn3C(=O)c2ccccc2O)ccc1O (stereo not given) , report its TGI.
Solution: > 10 µM

Taken from PubChem BioAssay (NCI).
